The reader will find reported pKd values listed item by item below.
experimental-target: T1, human IgE (myeloma IgE) (human, UniProt P01854-1 1-428)
T1 construct: Myeloma IgE coupled by amine coupling to a CM5 chip for Biacore; Also used to sensitize human FcεRIα-expressing 3D10 cells; also called PS IgE
T1 sequence (P01854 other isoform, or with tags, fused parts or gaps): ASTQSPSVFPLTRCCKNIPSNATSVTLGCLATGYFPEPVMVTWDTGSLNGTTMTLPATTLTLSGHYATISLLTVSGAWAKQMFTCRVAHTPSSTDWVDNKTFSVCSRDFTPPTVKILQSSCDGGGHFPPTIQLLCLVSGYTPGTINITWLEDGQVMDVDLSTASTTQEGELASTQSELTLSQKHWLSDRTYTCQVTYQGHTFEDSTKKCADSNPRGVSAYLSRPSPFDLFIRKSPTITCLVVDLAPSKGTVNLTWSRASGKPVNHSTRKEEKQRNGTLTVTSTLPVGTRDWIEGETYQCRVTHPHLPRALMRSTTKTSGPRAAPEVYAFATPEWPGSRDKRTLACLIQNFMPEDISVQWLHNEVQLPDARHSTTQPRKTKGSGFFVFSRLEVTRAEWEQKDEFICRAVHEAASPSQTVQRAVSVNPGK
test-details: SPR, Biacore T2000, myeloma IgE amine-coupled to CM5 chip, antibody in solution
pKd: −log10 of the molar value.
assay-metric: pKd

{"columns": ["binder", "reported-value"],
 "data": [
  ["hLAAIGE E17 (antibody, human IgG1, kappa, V domains shown, Humanized clone E17, a different molecule from the mouse Founder E17; The entries are labelled 'VH' and 'VL' but are full heavy (human IgG1) and kappa light chains) VH: QVQLVQSGSELKKPGASVKVSCKASGYTFTNYGMNWVRQAPGQGLEWMGWINTYTGEPTYADDFKGRFVFSLDTSVSTAYLQISSLKAEDTAVYYCARGAASHTMDYWGQGTTVTVSS VL: DIVMTQSPDSLAVSLGERATINCRASQSVSTSSHAYMHWYQQKPGQPPKLLIYYASNLESGVPDRFSGSGSGTDFTLTISSLQAEDVAVYYCQHSWEIPWTFGQGTKLEIKR", 6.85],
  ["hLAAIGE E59 (antibody, human IgG1, kappa, V domains shown, Humanized, derived from Founder E17; Expressed in 293 cells) VH: QVQLVQSGSELKKPGASVKVSCKASGYTFTNYGMNWVRQAPGQGLEWMGWINTYTGEPTYADDFKGRFVFSLDTSVSTAYLQISSLKAEDTAVYYCARGAASHTMDYWGQGTTVTVSS VL: DIVMTQSPDSLAVSLGERATINCRASQSVSTSSHSYMHWYQQKPGQPPKLLIYYASNLESGVPDRFSGSGSGTDFTLTISSLQAEDVAVYYCQHSWEIPWTFGQGTKLEIKR", 6.79]
]}

The measured values listed here are drawn from patent US20230090487A1.
